Reported IC50 values follow for various compounds
# measured on: human GluN1/GluN2B NMDA receptors (Homo sapiens)
# Construct: expressed in transfected cells
# protocol text: Cell-based calcium flux (FLIPR) assay on cloned human NR1/NR2B ion channels expressed in mammalian cells (standard and HTS buffer variants)
# assay conditions: standard assay buffer (0.5 mM MgCl2 in dye loading buffer; 137 mM NaCl, 4 mM KCl in assay buffer), human GluN1/GluN2B, read-out: NR2B IC50 (μM) standard assay
result type: IC50 (µM)

chemical smiles: COc1ccc(-c2cnc3[nH]c(=O)n(Cc4cc(C)on4)c3c2)cc1F
val: 0.139

chemical smiles: Cc1c(F)ccc(-c2cnc3c(c2)n(Cc2cncc(F)c2)c(=O)n3C)c1F
val: 0.081

chemical smiles: COCCNC(=O)Cn1c(=O)[nH]c2ncc(-c3ccc(F)cc3OC)cc21
val: 0.204

chemical smiles: Cn1c(=O)n(CC(=O)N2CC(F)C2)c2cc(-c3cccc(Cl)c3)cnc21
val: 0.016

chemical smiles: Cn1c(=O)n(Cc2cccnn2)c2cc(-c3cc(C(F)F)ccc3F)cnc21
val: 0.653

chemical smiles: Cn1c(=O)n(Cc2cccnn2)c2cc(-c3ccc(F)c(OC(F)F)c3)cnc21
val: 0.016

chemical smiles: Cn1c(=O)n(Cc2cccnn2)c2cc(-c3ccc(F)c(C(F)(F)F)c3)cnc21
val: 0.016

chemical smiles: Cc1cccnc1Cn1c(=O)[nH]c2ncc(-c3ccc(F)c(C)c3F)cc21
val: 0.046

chemical smiles: Cn1c(=O)n(Cc2cccnn2)c2cc(-c3ccc(F)c(Cl)c3)cnc21
val: 0.016

chemical smiles: CCC(=O)Cn1c(=O)n(C)c2ncc(-c3cccc(C(F)(F)F)c3)cc21
val: 0.05

chemical smiles: Cn1c(=O)n(Cc2cncc(F)c2)c2cc(-c3ccc(F)c(F)c3)cnc21
val: 0.256

chemical smiles: Cn1c(=O)n(Cc2cccnn2)c2cc(-c3ccc(Cl)c(C(F)(F)F)c3)cnc21
val: 0.206

chemical smiles: Cc1cccc(-c2cnc3c(c2)n(Cc2cncc(F)c2)c(=O)n3C)c1
val: 0.029

chemical smiles: Cc1cccc(-c2cnc3c(c2)n(Cc2cccnc2)c(=O)n3C)c1
val: 0.07

chemical smiles: Cc1cccc(-c2cnc3c(c2)n(CC(=O)N2CC(F)C2)c(=O)n3C)c1F
val: 0.022

chemical smiles: Cc1nnc(Cn2c(=O)n(C)c3ncc(-c4ccc(C(F)F)s4)cc32)o1
val: 0.304

chemical smiles: Cn1c(=O)n(Cc2cccnn2)c2cc(-c3ccc(Cl)c(OC(F)F)c3)cnc21
val: 0.028

chemical smiles: COc1cc(F)ccc1-c1cnc2[nH]c(=O)n(CC(=O)c3cccs3)c2c1
val: 0.255

###

Reported log10 of IC50 values follow for various compounds
# measured on: human GluN1/GluN2B NMDA receptors (Homo sapiens, UniProt Q13224)
# Construct: expressed in transfected cells
# Sequence (Q13224 27-1484, other chains not shown): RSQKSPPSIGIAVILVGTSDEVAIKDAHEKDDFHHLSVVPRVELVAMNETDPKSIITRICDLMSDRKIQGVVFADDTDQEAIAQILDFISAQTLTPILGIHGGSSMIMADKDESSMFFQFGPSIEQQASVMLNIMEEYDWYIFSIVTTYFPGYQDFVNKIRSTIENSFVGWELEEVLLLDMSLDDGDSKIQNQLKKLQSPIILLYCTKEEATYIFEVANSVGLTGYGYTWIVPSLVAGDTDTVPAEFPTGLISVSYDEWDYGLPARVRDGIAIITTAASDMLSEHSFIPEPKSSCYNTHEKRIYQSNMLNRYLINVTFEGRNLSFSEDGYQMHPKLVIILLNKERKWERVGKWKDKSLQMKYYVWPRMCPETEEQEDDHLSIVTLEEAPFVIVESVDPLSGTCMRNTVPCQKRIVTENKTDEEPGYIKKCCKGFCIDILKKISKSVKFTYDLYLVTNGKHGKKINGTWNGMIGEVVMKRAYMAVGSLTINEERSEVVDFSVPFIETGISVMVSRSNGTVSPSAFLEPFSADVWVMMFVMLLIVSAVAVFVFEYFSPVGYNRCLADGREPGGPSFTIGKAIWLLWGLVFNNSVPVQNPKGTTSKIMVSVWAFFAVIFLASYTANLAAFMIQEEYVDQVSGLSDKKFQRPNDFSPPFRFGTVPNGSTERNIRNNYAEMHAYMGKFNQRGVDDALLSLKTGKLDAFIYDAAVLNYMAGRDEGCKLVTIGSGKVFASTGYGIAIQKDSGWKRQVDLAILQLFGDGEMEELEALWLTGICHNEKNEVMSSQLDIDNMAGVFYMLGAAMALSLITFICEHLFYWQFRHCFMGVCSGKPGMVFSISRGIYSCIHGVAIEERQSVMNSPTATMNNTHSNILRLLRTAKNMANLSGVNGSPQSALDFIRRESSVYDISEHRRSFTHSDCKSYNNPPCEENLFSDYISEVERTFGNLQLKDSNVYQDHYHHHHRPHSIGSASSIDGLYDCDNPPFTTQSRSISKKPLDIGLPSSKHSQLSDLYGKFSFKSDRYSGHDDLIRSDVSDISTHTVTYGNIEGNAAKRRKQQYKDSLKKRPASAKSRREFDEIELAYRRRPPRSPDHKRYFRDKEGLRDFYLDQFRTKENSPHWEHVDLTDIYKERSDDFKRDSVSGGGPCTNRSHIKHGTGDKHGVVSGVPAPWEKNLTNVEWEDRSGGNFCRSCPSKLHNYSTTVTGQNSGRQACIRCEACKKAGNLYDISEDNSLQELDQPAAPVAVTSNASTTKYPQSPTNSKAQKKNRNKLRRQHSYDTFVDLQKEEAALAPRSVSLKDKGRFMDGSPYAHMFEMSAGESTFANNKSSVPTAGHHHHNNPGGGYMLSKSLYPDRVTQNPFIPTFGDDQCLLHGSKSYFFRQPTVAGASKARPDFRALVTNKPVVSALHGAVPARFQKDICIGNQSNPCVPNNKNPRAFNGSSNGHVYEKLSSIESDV
# protocol text: Cell-based calcium flux (FLIPR) assay on cloned human NR1/NR2B ion channels expressed in mammalian cells (standard and HTS buffer variants);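 note: stable Tet-On inducible cell line, Ca2+ influx triggered by glutamate at about EC40 plus 10 µM glycine, fluorescent dye read-out over 5 min, normalized to control wells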
# assay conditions: standard assay buffer (0.5 mM MgCl2 in dye loading buffer; 137 mM NaCl, 4 mM KCl in assay buffer), human GluN1/GluN2B, read-out: NR2B IC50 (μM) standard assay
result type: log10 of IC50 (log10 of the value in µM)

chemical smiles: Cn1c(=O)n(Cc2cncc(F)c2)c2cc(-c3cccc(OC(F)(F)F)c3)cnc21
result type: log10 of IC50
val: -0.11
//
chemical smiles: Cc1cccc(-c2cnc3c(c2)n(Cc2cncc(Cl)c2)c(=O)n3C)c1
result type: log10 of IC50
val: -0.38
//
chemical smiles: Cn1c(=O)n(Cc2cncc(Cl)c2)c2cc(-c3cccc(F)c3F)cnc21
result type: log10 of IC50
val: 0.18
//
chemical smiles: Cn1c(=O)n(Cc2cncc(F)c2)c2cc(-c3cccc(Cl)c3F)cnc21
result type: log10 of IC50
val: -0.97
//
chemical smiles: Cn1cc(Cn2c(=O)n(C)c3ncc(-c4ccc(C(F)(F)F)s4)cc32)cn1
result type: log10 of IC50
val: -0.43
//
chemical smiles: CN(C)C(=O)Cn1c(=O)n(C)c2ncc(-c3ccc(Cl)c(OC(F)F)c3)cc21
result type: log10 of IC50
val: -1.47
//
chemical smiles: Cn1c(=O)n(Cc2cncc(F)c2)c2cc(-c3ccc(F)c(OC(F)F)c3)cnc21
result type: log10 of IC50
val: -1.44
//
chemical smiles: Cc1cc(-c2cnc3c(c2)n(CC(=O)N2CC(F)C2)c(=O)n3C)ccc1F
result type: log10 of IC50
val: -1.80
//
chemical smiles: COc1ccc(-c2cnc3[nH]c(=O)n(CC4CC4)c3c2)cc1
result type: log10 of IC50
val: 0.26
//
chemical smiles: CCOc1ccccc1-c1cnc2[nH]c(=O)n(Cc3cccc(OC)c3)c2c1
result type: log10 of IC50
val: 0.32
//
chemical smiles: O=C(Cn1c(=O)[nH]c2ncc(-c3ccc(OCCF)c(C(F)(F)F)c3)cc21)N1CCC1
result type: log10 of IC50
val: -0.62
//
chemical smiles: Cn1c(=O)n(Cc2cncc(F)c2)c2cc(-c3cccc(F)c3F)cnc21
result type: log10 of IC50
val: -0.65
//
chemical smiles: Cc1noc(Cn2c(=O)n(C)c3ncc(-c4ccc(C(F)F)s4)cc32)n1
result type: log10 of IC50
val: -0.50
//
chemical smiles: CN(C)C(=O)Cn1c(=O)n(CF)c2ncc(-c3ccc(C(F)(F)F)s3)cc21
result type: log10 of IC50
val: -1.18
//
chemical smiles: Cn1c(=O)n(CC(=O)N2CC(F)C2)c2cc(-c3ccc(F)c(C(F)F)c3)cnc21
result type: log10 of IC50
val: -1.74
//
chemical smiles: Cc1cc(-c2cnc3c(c2)n(CC(=O)N2CC(F)(F)C2)c(=O)n3C)ccc1F
result type: log10 of IC50
val: -2.05
//
chemical smiles: CC(C)(C)C(=O)Cn1c(=O)[nH]c2ncc(-c3cccc(C(F)(F)F)c3)cc21
result type: log10 of IC50
val: -0.69
